Molecular target: T1, rat calcitonin receptor (rat, UniProt P32214 25-516)
T1 construct: whole, on cells; Membranes prepared from transiently transfected BHK tk'ts 13 cells; also called rCTR; rat calcitonin (a) receptor
T1 sequence (looked up): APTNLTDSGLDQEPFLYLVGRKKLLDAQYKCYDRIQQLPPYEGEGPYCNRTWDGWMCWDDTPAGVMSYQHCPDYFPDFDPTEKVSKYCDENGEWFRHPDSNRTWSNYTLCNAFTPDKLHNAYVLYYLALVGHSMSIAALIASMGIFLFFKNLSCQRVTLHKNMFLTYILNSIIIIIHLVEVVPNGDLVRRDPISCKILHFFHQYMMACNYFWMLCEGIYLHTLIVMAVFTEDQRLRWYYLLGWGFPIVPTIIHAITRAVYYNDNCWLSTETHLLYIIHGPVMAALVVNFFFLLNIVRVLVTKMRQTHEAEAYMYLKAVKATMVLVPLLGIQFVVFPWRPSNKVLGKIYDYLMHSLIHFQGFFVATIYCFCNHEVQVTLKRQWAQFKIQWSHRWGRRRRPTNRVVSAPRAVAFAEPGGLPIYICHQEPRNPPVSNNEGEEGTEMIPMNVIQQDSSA
Test: ratio of IC50 on rat calcitonin receptor to IC50 on rat amylin receptor
Numbered stars: 1 amine (or outer) side, 2 acyl side, 3 side chain; on linkers, the order of the positions; unused ones are H or OH. Bridge positions count the residues as written; N and C are the ends. Side chains are listed from the residue outwards. Ends that are not written are not given here. * marks the point of attachment. C20 diacid = O=C(O)CCCCCCCCCCCCCCCCCCC(=O)*; γGlu = O=C(O)[C@H](CCC(=O)[*:2])N[*:1]
quantityName: Ratio rCT/rAmylin binding

Worked examples, 5 binders total:
In [3]: df
Out[3]:
                                     binder               quantityname  valueobserved
0  K([γGlu-γGlu-C20 diacid])CNTATCATQRLAEFLRHSSPNFGAIPSSTNVGPETY-NH2 (disulfide 2-7 (inferred))  Ratio rCT/rAmylin binding           88.5
1  K([γGlu-γGlu-C20 diacid])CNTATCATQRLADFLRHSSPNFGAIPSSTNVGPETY-NH2 (disulfide 2-7)  Ratio rCT/rAmylin binding           98.5
2  {C20 diacid-γGlu}-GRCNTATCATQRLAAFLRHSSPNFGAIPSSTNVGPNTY-NH2 (disulfide 3-8)  Ratio rCT/rAmylin binding            129
3  K([γGlu-γGlu-C20 diacid])CNTATCATQRLADFLRHSSPNFGAIPSSTNVGPRTY-NH2 (disulfide 2-7, also called compound 130)  Ratio rCT/rAmylin binding            240
4  K([γGlu-γGlu-C20 diacid])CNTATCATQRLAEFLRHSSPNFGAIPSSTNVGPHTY-NH2 (disulfide 2-7 (inferred))  Ratio rCT/rAmylin binding             73

A = K([γGlu-γGlu-C20 diacid])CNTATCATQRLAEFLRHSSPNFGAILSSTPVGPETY-NH2 (disulfide 2-7)
B = K([γGlu-C20 diacid])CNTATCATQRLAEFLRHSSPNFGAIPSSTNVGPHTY-NH2 (disulfide 2-7)
Ask: Just curious, which one has the larger Ratio rCT/rAmylin binding reading, A or B ? Field: selected label. Fill in the label of the entry you choose.
Reply: A
